TESTED TARGET: T1, anti-CD28 Fab (SEQ ID NOs: 202, 203)
T1 construct: biotinylated and captured on neutravidin coated plates in the phage ELISA
T1 sequence (VH, as listed by the source, chain 1 of 2): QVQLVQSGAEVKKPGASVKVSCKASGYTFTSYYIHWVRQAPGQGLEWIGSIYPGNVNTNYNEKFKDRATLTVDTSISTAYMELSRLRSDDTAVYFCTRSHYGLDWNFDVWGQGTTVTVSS
T1 sequence (VL, as listed by the source, chain 2 of 2): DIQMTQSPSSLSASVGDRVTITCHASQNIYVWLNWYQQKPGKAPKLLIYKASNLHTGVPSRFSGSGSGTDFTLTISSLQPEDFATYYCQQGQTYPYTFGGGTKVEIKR
ASSAY: phage ELISA on captured Fab;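 also: ELISA with clonal phage supernatants added to wells preincubated with CD28 antigen or with blocking buffer only, bound phage detected by HRP-conjugated anti-M13 antibody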
Provide the recorded Anti-CD28 Fab (SEQ ID NOs: 202, 203) signal for the entries that follow.
Numbers only.

List Anti-CD28 Fab (SEQ ID NOs: 202, 203) signal for every entry below, keeping the order given.
1. YCAGHLPQYIQKCL (on phage, pIII fusion) [Phage-591]
2. YCDGHLEIYMSKCL (on phage, pIII fusion) [Phage-581]
3. YCEGHAVEYMAKCL (on phage, pIII fusion) [Phage-593]
4. YCEGHSWVYMAKCL (on phage, pIII fusion) [Phage-493]
5. YCDGHVAEYRHKCL (on phage, pIII fusion) [Phage-577]
6. YCDGHAEEYMAKCL (on phage, pIII fusion) [Phage-588]

1.44
1.46
1.44
1.63
1.47
1.45

List Anti-CD28 Fab (SEQ ID NOs: 202, 203) signal for every entry below, keeping the order given.
1. YCDGHAQEYRLKCL (on phage, pIII fusion) [Phage-477]
2. YCDGHAQEYMDKCL (on phage, pIII fusion) [Phage-500]

1. 1.65
2. 1.62

Where do the numbers come from? From patent US20260274955A1.
